These measurements were taken from PubChem BioAssay AID2060905.

# key: entry, value: viability, T/C
tested on: 282377-053-R-J1-PDC complex spheroid viability; test: Anticancer human tumor 282377-053-R-J1-PDC patient-derived colon adenocarcinoma cell line growth inhibition [RAS]; conditions: second compound 0.003 µM; first compound 0.000949 µM; stronger effect = lower value;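 note: spheroids exposed to agents for seven days before readout; luminescence viability as percent of DMSO vehicle control wells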
observation type: viability, T/C (%)

compound="CC1(C)CCC(Nc2ncc(C(F)(F)F)c(-c3c[nH]c4c(P(C)(C)=O)c(C#N)ccc34)n2)CN1 (centres undefined) + CCn1c(-c2cc(N3CCN(C)CC3)cnc2C(C)OC)c2c3cc(ccc31)-c1csc(n1)CC(NC(=O)C1CC1C)C(=O)N1CCCC(N1)C(=O)OCC(C)(C)C2" observation_type="viability, T/C" recorded_number=98.2
compound="CCc1c2c(nc3ccc(O)cc13)-c1cc3c(c(=O)n1C2)COC(=O)[C@]3(O)CC + CCn1c(-c2cc(N3CCN(C)CC3)cnc2C(C)OC)c2c3cc(ccc31)-c1csc(n1)CC(NC(=O)C1CC1C)C(=O)N1CCCC(N1)C(=O)OCC(C)(C)C2" observation_type="viability, T/C" recorded_number=109
compound="CC1(C)CCC(Nc2ncc(C(F)(F)F)c(-c3c[nH]c4c(P(C)(C)=O)c(C#N)ccc34)n2)CN1 (centres undefined) + CCn1c(-c2cccnc2C(C)OC)c2c3cc(ccc31)N1CCOC(CC(NC(=O)C(C(C)C)N(C)C(=O)C3(F)CCN(C(=O)C#CC(C)(C)N(C)C)CC3)C(=O)N3CCCC(N3)C(=O)OCC(C)(C)C2)C1" observation_type="viability, T/C" recorded_number=94.1
compound="CCc1c2c(nc3ccc(O)cc13)-c1cc3c(c(=O)n1C2)COC(=O)[C@]3(O)CC + CCn1c(-c2cccnc2C(C)OC)c2c3cc(ccc31)N1CCOC(CC(NC(=O)C(C(C)C)N(C)C(=O)C3(F)CCN(C(=O)C#CC(C)(C)N(C)C)CC3)C(=O)N3CCCC(N3)C(=O)OCC(C)(C)C2)C1" observation_type="viability, T/C" recorded_number=111
